Values compiled from patent US20230235054A1.

Catalogue of pKd readings, one per entry.
# systemTested: T1, huNectin4-His (human, UniProt Q96NY8 32-349)
# T1 construct: Immobilized on the SPR chip; also called humanNectin4; human Nectin4; not shown: His tag
# T1 sequence (looked up): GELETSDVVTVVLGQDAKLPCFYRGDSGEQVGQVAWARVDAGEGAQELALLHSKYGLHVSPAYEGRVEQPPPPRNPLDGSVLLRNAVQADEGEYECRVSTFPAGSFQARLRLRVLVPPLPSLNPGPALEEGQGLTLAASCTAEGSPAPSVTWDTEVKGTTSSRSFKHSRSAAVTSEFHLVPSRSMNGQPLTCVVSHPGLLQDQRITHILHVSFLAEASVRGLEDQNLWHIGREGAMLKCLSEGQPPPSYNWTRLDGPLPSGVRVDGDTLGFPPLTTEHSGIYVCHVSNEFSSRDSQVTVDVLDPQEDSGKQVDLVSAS
# assayProcedure: SPR, huNectin4-His immobilized, pH 6.0
pKd: −log10 of the molar value.
measurementName: pKd

[[record]]
binder = "BAP-143-00-05 (antibody, V domains shown, Used as a conjugate with a linker payload (CAB ADC)) VH: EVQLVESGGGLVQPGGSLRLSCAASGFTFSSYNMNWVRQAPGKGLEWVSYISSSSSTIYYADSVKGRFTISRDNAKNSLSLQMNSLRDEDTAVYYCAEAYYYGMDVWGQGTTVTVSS VL: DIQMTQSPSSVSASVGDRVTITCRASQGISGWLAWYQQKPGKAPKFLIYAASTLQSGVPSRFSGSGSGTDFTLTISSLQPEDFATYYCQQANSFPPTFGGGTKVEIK"
testresult = 8.20

[[record]]
binder = "BAP-143-00-06 (antibody, V domains shown, Used as a conjugate with a linker payload (CAB ADC)) VH: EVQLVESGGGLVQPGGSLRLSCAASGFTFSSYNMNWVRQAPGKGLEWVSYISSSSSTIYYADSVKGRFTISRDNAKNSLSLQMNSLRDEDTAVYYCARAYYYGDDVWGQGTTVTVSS VL: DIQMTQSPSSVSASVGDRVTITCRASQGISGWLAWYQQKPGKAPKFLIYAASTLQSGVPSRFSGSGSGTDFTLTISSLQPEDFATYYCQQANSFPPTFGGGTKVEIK"
testresult = 8.79

[[record]]
binder = "BAP-143-wildtype (antibody, V domains shown, 150 kDa used in SPR; also called BAP143-00-00; benchmark (BM)) VH: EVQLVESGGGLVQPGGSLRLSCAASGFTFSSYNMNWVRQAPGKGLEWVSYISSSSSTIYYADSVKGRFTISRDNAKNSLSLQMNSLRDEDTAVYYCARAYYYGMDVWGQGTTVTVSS VL: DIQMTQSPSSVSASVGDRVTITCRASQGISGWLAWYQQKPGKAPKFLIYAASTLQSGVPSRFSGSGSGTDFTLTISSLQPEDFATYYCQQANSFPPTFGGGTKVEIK"
testresult = 8.83

